# key: entry, value: cAMP Rel EC50 (1% HSA)
- Measured on: hGLP-1R (Homo sapiens, UniProt P43220)
- Sequence (P43220 24-463): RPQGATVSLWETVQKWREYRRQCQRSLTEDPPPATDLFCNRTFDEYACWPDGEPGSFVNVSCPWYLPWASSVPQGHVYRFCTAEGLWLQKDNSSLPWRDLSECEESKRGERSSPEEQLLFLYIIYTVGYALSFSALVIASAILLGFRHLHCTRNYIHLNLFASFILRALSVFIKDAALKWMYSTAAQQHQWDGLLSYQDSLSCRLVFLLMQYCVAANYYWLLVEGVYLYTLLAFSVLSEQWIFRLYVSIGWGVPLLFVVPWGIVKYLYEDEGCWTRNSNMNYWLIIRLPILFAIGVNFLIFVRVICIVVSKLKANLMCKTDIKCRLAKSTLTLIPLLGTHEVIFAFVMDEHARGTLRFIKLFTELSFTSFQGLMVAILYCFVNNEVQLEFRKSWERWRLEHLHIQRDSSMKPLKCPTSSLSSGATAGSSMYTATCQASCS
- Assay: cell-based or functional assay
Kindly answer with a numeric value in nM, unit omitted.

Below, each entry is followed by its recorded cAMP Rel EC50 (1% HSA) result.
>>> meas_value("YXQGTXTSDXXIXLDXKAAXEFIEXLIEGGPSSGEPPPSGTE (synthetic construct; SITE 2: note = 2-Aminoisobutyric Acid; SITE 6: note = alpha-methyl-2-fluoro-L-phenylalanine; SITE 10: note = 3-(4-Pyridyl)-L-alanine; SITE 11: note = alpha-methyl-L-serine; SITE 13: note = alpha-methyl-leucine; SITE 16: note = L-ornithine; SITE 17: note = Lysine is chemically mo) [Example 719]")
23.2
>>> meas_value("YXQGTXTSDXXIXLDXKAAXEFIEXLIEGGPSSGAPPPSGSEE (synthetic construct; SITE 2: note = 2-Aminoisobutyric Acid; SITE 6: note = alpha-methyl-2-fluoro-L-phenylalanine; SITE 10: note = 3-(4-Pyridyl)-L-alanine; SITE 11: note = alpha-methyl-L-serine; SITE 13: note = alpha-methyl-leucine; SITE 16: note = L-ornithine; SITE 17: note = Lysine is chemically mo) [Example 704]")
33.9

Then there is this binder:
The measured cAMP Rel EC50 (1% HSA) associated with YXQGTXTSDXXIXLDXKAQXQFIEXLQEGGPSSGEPPPEGTGE (synthetic construct; SITE 2: note = 2-Aminoisobutyric Acid; SITE 6: note = alpha-methyl-2-fluoro-L-phenylalanine; SITE 10: note = 3-(4-Pyridyl)-L-alanine; SITE 11: note = alpha-methyl-L-serine; SITE 13: note = alpha-methyl-leucine; SITE 16: note = L-ornithine; SITE 17: note = Lysine is chemically mo) [Example 529] reads 24.5
